- Tested on: OVCAR-8
- method-notes: NCI tumour cell line growth inhibition, 48 h
Activity calls are given as the source filed them. Cut-off read from the data, not from the text of the source: active = GI50 up to about 1.1 µM and inactive = higher.
Outcome codes: T for active, F for inactive

[
  {
    "compound": "CC1=NN2C(=N)/C(=C/c3ccccc3)C(=O)N=C2S1",
    "assigned-label": "F"
  },
  {
    "compound": "Nc1ccn([C@@H]2C=C(CO)[C@@H](O)[C@H]2O)c(=O)n1",
    "assigned-label": "T"
  },
  {
    "compound": "O=C(O)/C=C\\C(=O)Nc1ccc(S(=O)(=O)c2ccc(NC(=O)/C=C\\C(=O)O)cc2)cc1",
    "assigned-label": "F"
  },
  {
    "compound": "O=[N+]([O-])c1ccc(-c2noc(-c3ccccc3)c2C2=NCCN2)cc1",
    "assigned-label": "F"
  },
  {
    "compound": "O=c1[nH]c2ccccc2nc1CBr",
    "assigned-label": "F"
  },
  {
    "compound": "NS(=O)(=O)c1ccc(/N=N/c2cnc(O)c(O)c2)cc1",
    "assigned-label": "F"
  },
  {
    "compound": "O=C1c2ccccc2-c2c1c(-c1ccc(F)cc1)nc1ccc3ccccc3c21",
    "assigned-label": "F"
  },
  {
    "compound": "COCN1C(=O)C2CC(/C=C/C(N)=O)=CN2C(=O)c2ccccc21 (configuration not stated)",
    "assigned-label": "F"
  },
  {
    "compound": "O=C(O)CSc1ccccc1C(=O)O",
    "assigned-label": "F"
  },
  {
    "compound": "c1ccc(CSc2nc(N3CCCCC3)c3cn[nH]c3n2)cc1",
    "assigned-label": "F"
  },
  {
    "compound": "Cc1cc(-c2nc3ccccc3s2)ccc1NS(=O)(=O)O",
    "assigned-label": "F"
  },
  {
    "compound": "COP1(=O)OCc2cnccc2O1 (configuration not stated)",
    "assigned-label": "F"
  }
]

* * *

- Test system: Malme-3M
- method-notes: NCI tumour cell line growth inhibition, 48 h
The source made the active and inactive calls. Cut-off read from the data, not from the text of the source: active = GI50 up to about 1.1 µM and inactive = higher.
Outcome codes: yes = active, no = inactive

[
  {
    "molecule": "CCN(CC)CCOC(c1ccccc1)c1ccccc1.CCOC(=O)Nc1ccc(S(=O)(=O)NCCCl)cc1.CCOC(=O)Nc1ccc(S(=O)(=O)NCCCl)cc1.Nc1ccc(C(=O)O)c(O)c1",
    "assigned-label": "no"
  },
  {
    "molecule": "N#CC(c1cc(Cl)ncn1)c1nc2ccccc2s1 (stereo not drawn)",
    "assigned-label": "no"
  },
  {
    "molecule": "CC(=O)OC1OC(c2ccoc2)C[C@@]12C1CCC3O[C@]3(C)[C@]1(C)[C@H](OC(C)=O)[C@H](OC(C)=O)[C@H]2C (stereo partly drawn)",
    "assigned-label": "no"
  },
  {
    "molecule": "CC(C)(C)OC(=O)C(C#N)C(=O)c1ccc(C(=O)O)[nH]1 (stereo not drawn)",
    "assigned-label": "no"
  },
  {
    "molecule": "COC(=O)C1(C)C=CC(=O)C2(C)C1C(O)C1OC3CC(c4ccoc4)C(C)=C3C1(C)C2CC(=O)O (stereo not drawn)",
    "assigned-label": "no"
  },
  {
    "molecule": "O=C1OCCC1C(O)C1c2ccccc2-c2ccccc21 (stereo not drawn)",
    "assigned-label": "no"
  },
  {
    "molecule": "C=CCNC(=O)NC1=CSC2=NC(=O)C3(NN12)c1ccccc1-c1ccccc13",
    "assigned-label": "no"
  },
  {
    "molecule": "CC1(C)CNCC(C)(OCc2ccccc2)C(=O)NC(C)(C)CNCC(C)(OCc2ccccc2)C(=O)N1 (stereo not drawn)",
    "assigned-label": "no"
  },
  {
    "molecule": "O=C1C(=Cc2cccs2)C(=O)N(CCc2ccccc2)S(=O)(=O)N1CCc1ccccc1",
    "assigned-label": "no"
  },
  {
    "molecule": "O=C([O-])C1([n+]2c(-c3ccccc3)cc(-c3ccccc3)cc2-c2ccccc2)CC1",
    "assigned-label": "no"
  },
  {
    "molecule": "CCCNc1c(Cl)cc(Cl)c2[nH]c3ccccc3c(=O)c12",
    "assigned-label": "no"
  },
  {
    "molecule": "N#CC(c1cc2c(cc1Br)OCO2)N1CCOCC1 (stereo not drawn)",
    "assigned-label": "no"
  },
  {
    "molecule": "C=CCC1(CN(C)C)CC/C(=C\\c2ccc(Cl)cc2)C1=O (stereo not drawn)",
    "assigned-label": "no"
  },
  {
    "molecule": "CC(=O)OC[C@@H](COC(=O)/C=C/c1ccc(O)cc1)OC1OC(CO)C(O)C(O)C1O (stereo partly drawn)",
    "assigned-label": "no"
  },
  {
    "molecule": "CCN(CC)CC1c2ccccc2C(CNc2ccccc2)N1C (stereo not drawn)",
    "assigned-label": "no"
  },
  {
    "molecule": "CC(=O)O[C@H]1C(=O)[C@@]2(C)[C@H]([C@H](OC(=O)c3ccccc3)[C@]3(O)C[C@H](OC(=O)[C@H](O)[C@@H](NC(=O)C(C)(O)C(C)O)c4ccccc4)C(C)=C1C3(C)C)[C@]1(OC(C)=O)CO[C@@H]1C[C@@H]2O (stereo partly drawn)",
    "assigned-label": "yes"
  },
  {
    "molecule": "O=C1C(Cl)=C(Cl)C(=O)N1c1ccc(Cl)c(Cl)c1Cl",
    "assigned-label": "no"
  },
  {
    "molecule": "COc1cc(/C=N/c2ccccn2)cc(OC)c1OC",
    "assigned-label": "no"
  }
]

* * *

- Test system: SR
- method-notes: NCI tumour cell line growth inhibition, 48 h
Calls of active or inactive are those of the source. Cut-off read from the data, not from the text of the source: active = GI50 up to about 1.1 µM and inactive = higher.
Outcome codes: yes (active), no (inactive)

[
  {
    "compound": "CC(=O)Oc1ccc2c(c1)O/C(=C\\c1ccc(O)cc1)C2=O",
    "tested-system": "SR",
    "assigned-label": "no"
  },
  {
    "compound": "C[C@@H]1[C@H](C)N1CC(O)Cn1ccnc1[N+](=O)[O-] (some centres undefined)",
    "tested-system": "SR",
    "assigned-label": "no"
  },
  {
    "compound": "N#Cc1c(-c2ccc(Cl)cc2)cc(-c2ccc(Nc3ccnc4cc(C(F)(F)F)ccc34)cc2)[nH]c1=O",
    "tested-system": "SR",
    "assigned-label": "no"
  },
  {
    "compound": "CCn1c(=O)c2nc(SC)sc2n(-c2ccc(C)cc2)c1=O",
    "tested-system": "SR",
    "assigned-label": "no"
  },
  {
    "compound": "CN1C(=O)[C@@]2(C=CC3(CC2)OCCO3)c2ccccc21",
    "tested-system": "SR",
    "assigned-label": "no"
  },
  {
    "compound": "O=C(CC1(O)C(=O)Nc2c(Cl)cc(Cl)cc21)c1ccc(F)cc1 (centres undefined)",
    "tested-system": "SR",
    "assigned-label": "no"
  },
  {
    "compound": "Cc1cccc2c(=O)c3cccc([C@@H](C)C(=O)O)c3oc12",
    "tested-system": "SR",
    "assigned-label": "no"
  },
  {
    "compound": "COC(=O)CC[C@@H](NC(=O)C(C)NC(=O)COC1C(O)C(COC(=O)CCCCCCCCCCNC(=O)c2ccc([N+](=O)[O-])c3[nH]c4cc(Br)ccc4c(=O)c23)OC(OCc2ccccc2)C1NC(C)=O)C(N)=O (some centres undefined)",
    "tested-system": "SR",
    "assigned-label": "no"
  },
  {
    "compound": "Cc1c(C)c2c(c(N)c1C#N)C(=O)N(O)C2=O",
    "tested-system": "SR",
    "assigned-label": "no"
  },
  {
    "compound": "COc1ccc2c(=O)c3ccoc3[nH]c2c1",
    "tested-system": "SR",
    "assigned-label": "no"
  },
  {
    "compound": "Cc1ccc(S(=O)(=O)C(C#N)c2nc3ccccc3nc2N2CCOCC2)cc1 (centres undefined)",
    "tested-system": "SR",
    "assigned-label": "no"
  },
  {
    "compound": "Cn1c(=O)c2c(nc(-n3nc(-c4ccc(Cl)cc4)cc3N)n2C)n(C)c1=O",
    "tested-system": "SR",
    "assigned-label": "no"
  },
  {
    "compound": "Cc1ccc2nc3c(C(=O)NCCN(C)C)cccc3nc2c1",
    "tested-system": "SR",
    "assigned-label": "yes"
  },
  {
    "compound": "COC(=O)c1c(O)ccc2c1c1c(n2Cc2ccc(Cl)cc2Cl)C(=O)c2ccccc2C1=O",
    "tested-system": "SR",
    "assigned-label": "no"
  },
  {
    "compound": "O=Cc1c[nH]c2c(=O)[nH]cnc12",
    "tested-system": "SR",
    "assigned-label": "no"
  },
  {
    "compound": "CC(=O)NNc1nc(C)c(C(/C=C/c2ccc3c(c2)OCO3)=N/NC(=O)c2ccncc2)s1",
    "tested-system": "SR",
    "assigned-label": "no"
  },
  {
    "compound": "C=CCNC(=O)NC1=CSC2=NC(=O)C3(NN12)c1ccccc1-c1ccccc13",
    "tested-system": "SR",
    "assigned-label": "no"
  },
  {
    "compound": "OCCOCCO[P+]1(OCCOCCO)n2c3ccc2C(c2ccccc2)=C2C=CC(=N2)C(c2ccccc2)=c2ccc(n21)=C(c1ccccc1)C1=NC(=C3c2ccccc2)C=C1",
    "tested-system": "SR",
    "assigned-label": "yes"
  },
  {
    "compound": "COc1cccc(/C=C2\\CCCCCC2=O)c1",
    "tested-system": "SR",
    "assigned-label": "no"
  },
  {
    "compound": "Nc1nc(Cl)cc(NCC2(O)CCC2)n1",
    "tested-system": "SR",
    "assigned-label": "no"
  },
  {
    "compound": "O=C1/C(=C/c2ccc(Cl)cc2)CCCc2ccccc21",
    "tested-system": "SR",
    "assigned-label": "no"
  },
  {
    "compound": "O=C(O)C1CCCN1Cc1c[nH]c2ccccc12 (centres undefined)",
    "tested-system": "SR",
    "assigned-label": "no"
  },
  {
    "compound": "CC(=S)NC1C(Oc2ccc3c(C)cc(=O)oc3c2)OC(CO)C(O)C1O (centres undefined)",
    "tested-system": "SR",
    "assigned-label": "no"
  },
  {
    "compound": "CC1=C2c3ccccc3N(S(=O)(=O)c3ccccc3)[C@H]2[C@H](C(=O)N2C3CC4CC[C@@]3(CS2(=O)=O)C4(C)C)CC1 (some centres undefined)",
    "tested-system": "SR",
    "assigned-label": "no"
  },
  {
    "compound": "CCOC(=O)C(C(=O)OCC)C(=O)c1ccccc1C(=O)c1ccccc1",
    "tested-system": "SR",
    "assigned-label": "no"
  },
  {
    "compound": "Cc1[nH]c(=O)[nH]c(=O)c1N(CCF)CCCl",
    "tested-system": "SR",
    "assigned-label": "no"
  },
  {
    "compound": "C(=N/Nc1ccc(-c2nc3ccccc3[nH]2)cc1)/c1c(-c2ccccc2)[nH]c2ccccc12",
    "tested-system": "SR",
    "assigned-label": "yes"
  },
  {
    "compound": "Cc1oc2c(C)c3oc(=O)cc(C)c3cc2c1CNC(=O)[C@@H]1OCCOCCOCCOCCOCCOC1C(=O)O (some centres undefined)",
    "tested-system": "SR",
    "assigned-label": "no"
  },
  {
    "compound": "O=C(O)c1ccccc1/C=C1\\Cc2cc3c(cc2C1=O)CCC3",
    "tested-system": "SR",
    "assigned-label": "no"
  },
  {
    "compound": "Cc1ccc(S(=O)(=O)N/N=C(\\c2nc3ccc([N+](=O)[O-])cc3nc2O)C(O)c2ccccc2Cl)cc1 (centres undefined)",
    "tested-system": "SR",
    "assigned-label": "no"
  },
  {
    "compound": "N=C(N)N/N=C/c1c(-c2ccc(Cl)c([N+](=O)[O-])c2)nc2sccn12",
    "tested-system": "SR",
    "assigned-label": "no"
  },
  {
    "compound": "COc1ccc(\\N=C/C=C/C(=C/COC(C)=O)OC(C)=O)cc1",
    "tested-system": "SR",
    "assigned-label": "no"
  },
  {
    "compound": "CC(=O)O[C@H]1C(=O)[C@@]2(C)[C@H]([C@H](OC(=O)c3ccccc3)[C@]3(O)C[C@H](OC(=O)[C@H](O)[C@@H](NC(=O)C(C)(O)C(C)O)c4ccccc4)C(C)=C1C3(C)C)[C@]1(OC(C)=O)CO[C@@H]1C[C@@H]2O (some centres undefined)",
    "tested-system": "SR",
    "assigned-label": "yes"
  },
  {
    "compound": "N#Cc1cccc(-n2[nH]c(=O)ccc2=O)c1",
    "tested-system": "SR",
    "assigned-label": "no"
  },
  {
    "compound": "COc1cccc(N2C(=O)CSC2c2cc(OC)c(OC)c(OC)c2)c1 (centres undefined)",
    "tested-system": "SR",
    "assigned-label": "no"
  },
  {
    "compound": "CCOC(=O)C1S/C(=N\\C(=N)N[N+](=O)[O-])N=C1C (centres undefined)",
    "tested-system": "SR",
    "assigned-label": "no"
  },
  {
    "compound": "CCOC(=O)C(NC(=O)CC)(Nc1ccccc1OC)C(F)(F)F (centres undefined)",
    "tested-system": "SR",
    "assigned-label": "no"
  },
  {
    "compound": "CN(C)CCCNCc1cccc2ccccc12",
    "tested-system": "SR",
    "assigned-label": "no"
  },
  {
    "compound": "O=[N+]([O-])/C=C\\c1c[nH]c2ccc(OCc3ccccc3)cc12",
    "tested-system": "SR",
    "assigned-label": "no"
  }
]
